testedTarget: Pantothenate synthetase (Mycobacterium tuberculosis (strain ATCC 25618 / H37Rv)) (UniProt P9WIL5)
Sequence (P9WIL5 whole entry, looked up): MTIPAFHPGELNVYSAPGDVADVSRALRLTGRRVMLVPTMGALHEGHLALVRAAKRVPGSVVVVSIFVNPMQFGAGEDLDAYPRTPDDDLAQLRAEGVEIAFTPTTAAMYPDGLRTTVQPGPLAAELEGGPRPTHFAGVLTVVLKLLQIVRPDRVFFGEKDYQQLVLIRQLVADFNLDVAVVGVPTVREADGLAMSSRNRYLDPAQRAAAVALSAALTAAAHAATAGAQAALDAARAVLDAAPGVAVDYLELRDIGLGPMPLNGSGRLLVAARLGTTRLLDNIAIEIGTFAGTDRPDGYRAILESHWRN
methodSummary: Coupled enzyme confirmation of inhibitors against recombinant Mtb PanC (AID 375);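 note: 0% = full reaction with vehicle and 100% = no enzyme background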
testParameters: coupled enzyme assay; at 10 µM, hits give high values
Here the recorded inhibition is given for each entry.

compound | unitInfo | inhibition
CCOC(=O)N1CCN(CC(O)COc2ccccc2C(C)CC)CC1 (configuration not stated) | % | 7
COc1ccc(C2c3c(oc4ccccc4c3=O)C(=O)N2c2ccc(C)cn2)cc1OC (configuration not stated) | % | 0
CC(=O)c1cccc(NC(=O)NCc2ccccn2)c1 | % | 2
CCCCn1c(NC(=O)CC)c(C#N)c2nc3ccccc3nc21 | % | 4
CC(=O)c1cccc(-n2nnnc2SCC(=O)N2CCCC2)c1 | % | 5
CC(C)NCC(O)COc1cccc2[nH]ccc12 (configuration not stated) | % | 0
c1ccn2c(SCc3cn4ccsc4n3)nnc2c1 | % | 1
COc1ccc(/C(O)=C2/C(=O)C(=O)N(CCCN(C)C)C2c2ccc(Cl)cc2)cc1OC (configuration not stated) | % | 3
COc1ccc(-c2nc(CSCC(=O)N3CCc4ccccc4C3)c(C)o2)cc1OC | % | 0
Cc1ccc2[nH]c3c(c2c1)CN(C(=O)CN1CCN(c2cccc(C)c2C)CC1)CC3 | % | 0
COc1ccccc1N1CCN(C(=O)c2ccc3nc(-c4ccco4)c(-c4ccco4)nc3c2)CC1 | % | 9
CC1=C(C(=O)OC(C)C)C(c2cccc(F)c2)n2ncnc2N1 (configuration not stated) | % | 2
CCC(C)NC(=O)C1c2cc(OC)c(OC)cc2C(=O)N(C)C1c1ccc(OC)cc1 (configuration not stated) | % | 0
O=C(Nc1ncc(Br)s1)C1CCCN1S(=O)(=O)c1cccc2cccnc12 (configuration not stated) | % | 0
COc1ccc(OC)c(CNC(=O)COc2cc(=O)n(C)c3ccccc23)c1 | % | 0
O=C(O)CC1=C(O)C(=O)N(c2ccccc2)C1c1ccccc1 (configuration not stated) | % | 0
Cn1c2c(c(=O)n(C)c1=O)C(NC(=O)C(C)(C)C)(C(F)(F)F)C(=O)N2 (configuration not stated) | % | 0
Cn1c(=N)c(S(=O)(=O)c2ccccc2)cc2c(=O)n3ccccc3nc21 | % | 2
CC(C)CCn1c(NCCc2ccccc2)nc2c1c(=O)n(C)c(=O)n2C | % | 0
N#Cc1c(NC(=O)c2ccc(Br)o2)n(-c2ccccc2)c2nc3ccccc3nc12 | % | 2
Cc1ccc2nc(NC(=O)Cn3cc4c(n3)CCCCC4)sc2c1 | % | 0
COc1ccc(-c2nnnn2C)cc1S(=O)(=O)NCc1ccccc1 | % | 1
